target: G3BP1 NTF2-like domain (1-139), WT (human, UniProt Q13283 1-139); assay: fluorescence polarisation
Sequence (Q13283 1-139): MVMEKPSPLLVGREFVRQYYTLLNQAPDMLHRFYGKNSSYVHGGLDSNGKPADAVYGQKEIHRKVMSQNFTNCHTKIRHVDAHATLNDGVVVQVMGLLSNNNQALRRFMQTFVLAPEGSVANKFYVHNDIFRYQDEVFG
Where no end group is shown, it is not given here. Ahx = NCCCCCC(=O)O
Quantity Measured: pKd
Hey, just a heads up that pKd is the negative log base 10 of the concentration in molar.

Query string: Entry {fluorescein-Ahx}-YNFIQDSMLDFE [Caprin1-derived dodecamer reporter peptide F*-YNFIQDSMLDFE] : reported pKd = ?
Result string: 5.77
